SYSTEM TESTED: CYP2C19 (Homo sapiens, UniProt P33261)
Sequence (P33261 whole entry): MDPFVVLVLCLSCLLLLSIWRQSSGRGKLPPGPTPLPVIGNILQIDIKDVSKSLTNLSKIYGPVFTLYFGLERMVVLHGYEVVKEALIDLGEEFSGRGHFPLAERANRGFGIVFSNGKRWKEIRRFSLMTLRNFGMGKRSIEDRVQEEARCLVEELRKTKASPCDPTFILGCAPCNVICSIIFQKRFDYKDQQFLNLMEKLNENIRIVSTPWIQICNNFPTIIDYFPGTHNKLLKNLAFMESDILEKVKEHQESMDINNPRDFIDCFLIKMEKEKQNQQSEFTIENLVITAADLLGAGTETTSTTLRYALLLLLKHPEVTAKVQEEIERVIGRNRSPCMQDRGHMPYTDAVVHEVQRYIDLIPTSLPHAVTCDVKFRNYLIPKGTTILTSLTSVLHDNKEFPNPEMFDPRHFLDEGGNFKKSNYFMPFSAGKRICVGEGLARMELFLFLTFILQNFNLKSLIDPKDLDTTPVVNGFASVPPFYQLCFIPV
METHOD: Inhibition of recombinant human CYP2C19 assessed as remaining activity at 10 uM after 20 mins by fluorescence assay
Format: ADME
SETUP CONDITIONS: read-out: Activity
READOUT TYPE: activity at 20 min, 10 µM (%)
Express the result in % but write the number alone.

Sample records with activity at 20 min, 10 µM:
O=C(Cc1ccncc1)N1CCc2nc(-c3cc4cc(F)ccc4[nH]c3=O)[nH]c2C1
35
O=C(c1cccnc1)N1CCc2nc(-c3cc4cc(F)ccc4[nH]c3=O)[nH]c2C1
92

Ask: Given the entry `O=C(c1ccncc1)N1CCc2nc(-c3cc4cc(F)ccc4[nH]c3=O)[nH]c2C1` , what activity at 20 min, 10 µM was observed with CYP2C19 (Homo sapiens, UniProt P33261)?
Reply: 77

Ask: Given the entry `O=C(c1ccc(CN2CCCCC2)cc1)N1CCc2nc(-c3cc4cc(F)ccc4[nH]c3=O)[nH]c2C1` , what activity at 20 min, 10 µM was observed with CYP2C19 (Homo sapiens, UniProt P33261)?
Reply: 100

====

SYSTEM TESTED: Vascular endothelial growth factor receptor 2 (Homo sapiens, UniProt P35968)
Sequence (P35968 whole entry, the tested form may be a part): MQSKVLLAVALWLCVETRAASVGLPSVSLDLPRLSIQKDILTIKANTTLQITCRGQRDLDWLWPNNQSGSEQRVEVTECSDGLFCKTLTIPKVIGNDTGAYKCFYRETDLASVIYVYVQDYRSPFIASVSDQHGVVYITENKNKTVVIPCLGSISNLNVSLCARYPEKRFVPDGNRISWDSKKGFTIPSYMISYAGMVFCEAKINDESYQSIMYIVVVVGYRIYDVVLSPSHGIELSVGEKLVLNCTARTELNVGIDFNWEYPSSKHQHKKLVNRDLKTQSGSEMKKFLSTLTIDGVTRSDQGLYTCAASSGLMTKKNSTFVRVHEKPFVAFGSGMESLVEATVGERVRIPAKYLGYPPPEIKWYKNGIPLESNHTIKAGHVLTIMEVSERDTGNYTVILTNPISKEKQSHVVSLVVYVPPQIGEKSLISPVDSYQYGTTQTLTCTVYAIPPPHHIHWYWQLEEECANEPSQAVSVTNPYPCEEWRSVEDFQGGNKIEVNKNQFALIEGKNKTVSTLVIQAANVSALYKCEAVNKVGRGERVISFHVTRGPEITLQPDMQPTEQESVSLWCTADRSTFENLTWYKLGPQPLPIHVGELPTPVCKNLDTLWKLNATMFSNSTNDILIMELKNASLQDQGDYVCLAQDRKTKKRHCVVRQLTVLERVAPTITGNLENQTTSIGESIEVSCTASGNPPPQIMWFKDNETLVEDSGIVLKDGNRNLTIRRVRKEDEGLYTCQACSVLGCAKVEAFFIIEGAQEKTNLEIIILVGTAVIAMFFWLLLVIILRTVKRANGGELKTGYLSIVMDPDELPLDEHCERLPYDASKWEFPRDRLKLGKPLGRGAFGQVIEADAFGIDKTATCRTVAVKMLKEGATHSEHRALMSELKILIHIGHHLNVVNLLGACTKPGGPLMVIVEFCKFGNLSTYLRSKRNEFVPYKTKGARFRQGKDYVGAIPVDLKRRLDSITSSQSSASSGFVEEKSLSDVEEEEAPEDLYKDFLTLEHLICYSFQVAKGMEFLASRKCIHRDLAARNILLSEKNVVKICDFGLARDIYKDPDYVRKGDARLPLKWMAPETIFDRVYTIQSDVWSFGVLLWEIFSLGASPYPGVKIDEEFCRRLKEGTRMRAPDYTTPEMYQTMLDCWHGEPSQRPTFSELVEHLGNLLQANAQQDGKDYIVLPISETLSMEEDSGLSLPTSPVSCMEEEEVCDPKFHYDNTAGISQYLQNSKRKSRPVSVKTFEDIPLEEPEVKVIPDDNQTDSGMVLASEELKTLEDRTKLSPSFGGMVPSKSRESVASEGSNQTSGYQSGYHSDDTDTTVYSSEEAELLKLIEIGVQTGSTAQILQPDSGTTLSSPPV
METHOD: Inhibition of recombinant VEGFR-2 kinase domain by homogeneous time-resolved fluorescence assay
Measured IC50 accompanies every entry in the list below.

Sample records with IC50:
O=C(CN1CCCC1)N1CCc2nc(-c3cc4ccccc4[nH]c3=O)[nH]c2C1
400 nM
O=C(c1ccc(CN2CCCCC2)cc1)N1CCc2nc(-c3cc4ccccc4[nH]c3=O)[nH]c2C1
1.3 nM

Ask: What does the data say about its IC50? Entry: `O=C(Cc1ccncc1)N1CCc2nc(-c3cc4cc(F)ccc4[nH]c3=O)[nH]c2C1`
Reply: 8.6 nM

Ask: What does the data say about its IC50? Entry: `O=C(OCc1ccccc1)N1CCc2nc(-c3cc4ccccc4[nH]c3=O)[nH]c2C1`
Reply: 600 nM

Ask: What does the data say about its IC50? Entry: `CN1CCN(CC(=O)N2CCc3nc(-c4cc5ccccc5[nH]c4=O)[nH]c3C2)CC1`
Reply: 300 nM

====

SYSTEM TESTED: CYP3A4 (Homo sapiens, UniProt P08684)
Sequence (P08684 whole entry): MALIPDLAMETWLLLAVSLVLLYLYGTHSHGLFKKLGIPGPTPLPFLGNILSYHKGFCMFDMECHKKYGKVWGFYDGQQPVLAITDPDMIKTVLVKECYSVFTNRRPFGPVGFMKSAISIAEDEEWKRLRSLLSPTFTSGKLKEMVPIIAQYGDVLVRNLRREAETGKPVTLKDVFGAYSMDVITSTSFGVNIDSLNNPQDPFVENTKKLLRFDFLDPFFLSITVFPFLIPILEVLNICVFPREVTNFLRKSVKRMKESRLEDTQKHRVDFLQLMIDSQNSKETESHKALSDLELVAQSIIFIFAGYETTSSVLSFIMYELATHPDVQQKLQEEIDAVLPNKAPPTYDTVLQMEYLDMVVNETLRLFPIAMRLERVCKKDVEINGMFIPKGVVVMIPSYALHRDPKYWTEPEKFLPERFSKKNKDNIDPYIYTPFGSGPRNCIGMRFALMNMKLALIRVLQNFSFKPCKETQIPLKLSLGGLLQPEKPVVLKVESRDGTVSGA
METHOD: Inhibition of recombinant human CYP3A4 assessed as remaining activity at 10 uM after 20 mins by fluorescence assay
Assay type: ADME
SETUP CONDITIONS: read-out: Activity
Measured activity at 20 min, 10 µM accompanies every entry in the list below.
Express the result in % but write the number alone.

O=C(c1ccc(CN2CCCCC2)cc1)N1CCc2nc(-c3cc4cc(F)ccc4[nH]c3=O)[nH]c2C1
16
O=C(c1cccnc1)N1CCc2nc(-c3cc4cc(F)ccc4[nH]c3=O)[nH]c2C1
83
O=C(c1ccncc1)N1CCc2nc(-c3cc4cc(F)ccc4[nH]c3=O)[nH]c2C1
89

Ask: What does the data say about its activity at 20 min, 10 µM? Entry: `O=C(Cc1ccncc1)N1CCc2nc(-c3cc4cc(F)ccc4[nH]c3=O)[nH]c2C1`
Reply: 33

====

SYSTEM TESTED: CYP1A2 (Homo sapiens, UniProt P05177)
Sequence (P05177 whole entry): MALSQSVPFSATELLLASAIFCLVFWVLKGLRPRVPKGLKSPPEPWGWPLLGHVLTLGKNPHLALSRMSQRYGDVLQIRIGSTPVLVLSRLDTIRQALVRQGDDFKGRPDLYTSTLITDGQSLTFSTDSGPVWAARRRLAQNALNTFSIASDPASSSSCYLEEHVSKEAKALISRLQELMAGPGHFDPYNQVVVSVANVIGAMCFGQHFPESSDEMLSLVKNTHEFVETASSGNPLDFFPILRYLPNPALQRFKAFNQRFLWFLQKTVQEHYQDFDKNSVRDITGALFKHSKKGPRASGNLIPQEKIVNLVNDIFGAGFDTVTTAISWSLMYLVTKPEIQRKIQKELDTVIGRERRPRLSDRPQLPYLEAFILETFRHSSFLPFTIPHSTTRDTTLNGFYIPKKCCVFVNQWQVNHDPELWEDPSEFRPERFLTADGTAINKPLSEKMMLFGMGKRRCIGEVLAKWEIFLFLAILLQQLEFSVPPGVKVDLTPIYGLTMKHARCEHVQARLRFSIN
METHOD: Inhibition of recombinant human CYP1A2 assessed as remaining activity at 10 uM after 20 mins by fluorescence assay
Assay type: ADME
SETUP CONDITIONS: read-out: Activity
READOUT TYPE: activity at 20 min, 10 µM (%)
Express the result in % but write the number alone.

Sample records with activity at 20 min, 10 µM:
O=C(Cc1ccncc1)N1CCc2nc(-c3cc4cc(F)ccc4[nH]c3=O)[nH]c2C1
58
O=C(c1ccncc1)N1CCc2nc(-c3cc4cc(F)ccc4[nH]c3=O)[nH]c2C1
96
O=C(c1cccnc1)N1CCc2nc(-c3cc4cc(F)ccc4[nH]c3=O)[nH]c2C1
86

# context switch: different compound, same activity at 20 min, 10 µM
Ask: Given the entry `O=C(c1ccc(CN2CCCCC2)cc1)N1CCc2nc(-c3cc4cc(F)ccc4[nH]c3=O)[nH]c2C1` , what activity at 20 min, 10 µM was observed with CYP1A2 (Homo sapiens, UniProt P05177)?
Reply: 89
